Sourced from patent US20230295212A1

Let's go through some recorded IC50 values for HERV-K reverse transcriptase (Homo sapiens, UniProt V9H0F6) together.

{"compound-structure-string": "CC[C@]1(COP(=O)(O)OP(=O)(O)OP(=O)(O)O)O[C@@H](n2ccc(N)nc2=O)C[C@@H]1O", "reported-value": "> 10 µM"}

Provide IC50 values for the following items, in order.
1. Nc1nc(=O)n([C@@H]2O[C@](CBr)(COP(=O)(O)OP(=O)(O)OP(=O)(O)O)[C@@H](O)[C@@H]2F)cc1F
2. Nc1ccn([C@H]2C[C@H](O)[C@@](CCl)(COP(=O)(O)OP(=O)(O)OP(=O)(O)O)O2)c(=O)n1
3. C#C[C@]1(COP(=O)(O)OP(=O)(O)OP(=O)(O)O)O[C@@H](n2ccc(N)nc2=O)[C@@H](F)[C@@H]1O

RESULT:
1: > 10 µM; 2: 17 µM; 3: 0.013 µM
